Molecular target: 5-hydroxytryptamine receptor 4 (Homo sapiens, UniProt Q13639)
Sequence (Q13639 whole entry): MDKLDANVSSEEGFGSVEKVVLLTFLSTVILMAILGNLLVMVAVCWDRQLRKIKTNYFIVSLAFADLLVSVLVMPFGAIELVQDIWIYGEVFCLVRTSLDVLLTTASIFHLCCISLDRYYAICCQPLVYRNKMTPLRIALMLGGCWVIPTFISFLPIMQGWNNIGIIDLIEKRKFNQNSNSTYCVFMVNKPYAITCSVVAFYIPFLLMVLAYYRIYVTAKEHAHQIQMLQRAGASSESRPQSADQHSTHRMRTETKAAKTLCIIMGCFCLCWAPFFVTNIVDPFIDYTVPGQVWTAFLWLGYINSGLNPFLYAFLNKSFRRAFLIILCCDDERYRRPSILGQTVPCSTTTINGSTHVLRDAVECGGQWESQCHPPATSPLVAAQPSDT
Assay: Displacement of radioligand from human 5HT4R by Cerep protocol based assay
Quantity Measured: Ki (nM)
Give the value, in units of nM, as a plain number.

Some compounds with known Ki results, for comparison:
**Query** Any idea what Ki was measured for CCCN1CCC(COc2nc3c(I)cccc3c3ccccc23)CC1 ?
**Result** 1.2

**Query** Any idea what Ki was measured for CCCN1CCC(COc2nc3c(F)cccc3c3ncccc23)CC1 ?
**Result** 0.04

Continuing:
**Query** Any idea what Ki was measured for Fc1cccc2c1nc(OCC1CCN(CCCc3ccc(I)cc3)CC1)c1cccnc12 ?
**Result** 0.23

The origin of these recorded values is ChEMBL document CHEMBL2176996.
